# Tested on: HCC1937
# assayComment: normalised response (% of control), CellTiter-Glo; higher = more viable cells (100 = DMSO, 0 = benzethonium chloride kill control)
# recordedConditions: incubation time: 72 h
Can you tell me normalised response for the items I'm about to list?
Numeric answer only, unit % assumed.

Find the recorded normalised response belonging to Cc1ccc(F)c(NC(=O)Nc2ccc(-c3cccc4[nH]nc(N)c34)cc2)c1 [Linifanib] (10 nM) and report it. 99.5

// returns reported normalised response for input OC[C@H]1O[C@@H](n2cnc3c2N=CNC[C@H]3O)C[C@@H]1O [Pentostatin] (100 nM) 99.4

Consider the molecule CN(C)C/C=C/C(=O)Nc1cc2c(Nc3ccc(F)c(Cl)c3)ncnc2cc1O[C@H]1CCOC1 [Afatinib] (10 nM) and give its measured normalised response. 97.6

Endpoint output: normalised response of Cc1c2oc3c(C)ccc(C(=O)N[C@@H]4C(=O)N[C@H](C(C)C)C(=O)N5CCC[C@H]5C(=O)N(C)CC(=O)N(C)[C@@H](C(C)C)C(=O)O[C@@H]4C)c3nc-2c(C(=O)N[C@@H]2C(=O)N[C@H](C(C)C)C(=O)N3CCC[C@H]3C(=O)N(C)CC(=O)N(C)[C@@H](C(C)C)C(=O)O[C@@H]2C)c(N)c1=O [Dactinomycin] (10 nM) . Value? 51

So what does the record say about normalised response for O=C(c1ccc(C(=O)N2CCC(N3CCCC3)CC2)c(Nc2ccccc2)c1)N1CCC(N2CCCC2)CC1 [UNC1215] (300 nM) ? 92.7

Recorded normalised response of Nc1nc(Cl)nc2c1ncn2[C@H]1C[C@H](O)[C@@H](CO)O1 [Cladribine] (10 nM) , please. 92.6

Data request, read-out normalised response, for CCN1CCN(c2ccc(Nc3cc(N(C)C(=O)Nc4c(Cl)c(OC)cc(OC)c4Cl)ncn3)cc2)CC1 [NVP-BGJ398] (10 nM) 96.9

Requested field: normalised response. Item: S=c1[nH]cnc2nc[nH]c12 [Mercaptopurine] (100 nM) 94

Could you share which normalised response value was measured for CS(=O)(=O)c1ccc(C(=O)Nc2ccc(Cl)c(-c3ccccn3)c2)c(Cl)c1 [Vismodegib] (100 nM) ? 99

Name the recorded normalised response for CO[C@H]1C[C@@H]2CC[C@@H](C)[C@@](O)(O2)C(=O)C(=O)N2CCCC[C@H]2C(=O)O[C@H]([C@H](C)C[C@@H]2CC[C@@H](OC(=O)C(C)(CO)CO)[C@H](OC)C2)CC(=O)[C@H](C)/C=C(\C)[C@@H](O)[C@@H](OC)C(=O)[C@H](C)C[C@H](C)/C=C/C=C/C=C/1C [Temsirolimus] (1 nM) . 77.8

For N#CC[C@H](C1CCCC1)n1cc(-c2ncnc3[nH]ccc23)cn1 [Ruxolitinib] (100 nM) , what is its reported normalised response? 102

State the recorded normalised response for this entry: COc1cc(Nc2ncc3c(n2)-c2ccc(Cl)cc2C(c2c(F)cccc2OC)=NC3)ccc1C(=O)O [Alisertib] (100 nM) 82.8
